Field: composite z-score. Provide a value for each of the molecules that follow.
# MEASUREMENT_PROTOCOL: small-molecule binders of probe aNOTCH2, primary screen, biochemical, small-molecule microarray, 635/667 nm fluorescence (AID 1121);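 further: score merges feature fluorescence read at 667 nm with its signal to noise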
# MEASUREMENT_PARAMETERS: higher = more signal
Answers are plain numbers.

* CC(C)CNC(=O)[C@@H]1c2ccccc2C(=O)N(C2Cc3ccccc3C2)[C@H]1c1ccc(CO)cc1 | -0.0984

Please state, for each entry, its recorded composite z-score.
1. CN1C(=O)[C@]2(CCS(=O)(=O)c3ccccc3)N=C(c3ccc(OCCCO)cc3)O[C@@H]2c2ccccc21
2. O=C1C2C=CC(C(O)c3cccc(O)c3)N(Nc3ccccc3F)C2C(=O)N1c1ccccc1 (stereo not given)
3. CCC[C@@H]1C=C(C(=O)OCC)[C@H](c2ccccc2)N1S(=O)(=O)c1ccc(C)cc1
4. C=CC(CO)NC(=O)OCC1c2ccccc2-c2ccccc21 (stereo not given)

Reply:
[-0.121, -0.141, 0.273, -0.108]

====

# MEASUREMENT_PROTOCOL: FRG1 promoter luciferase signal modulators, primary screen, FRG1 inhibition for FSHD, cell-based, C2C12 myotubes, firefly/Renilla luciferase, luminescence (AID 1084)
# MEASUREMENT_PARAMETERS: higher = more signal, called active from +8 up or from −8 down
Classification field: enter YES for z-score values not below -0.6, NO for values below it.

Look over these answered cases.
* CCC[C@@H]1C=C(C(=O)OCC)[C@H](c2ccccc2)N1S(=O)(=O)c1ccc(C)cc1 | NO
* CC(C)C[C@H]1NC(=O)[C@H](Cc2ccccc2)NC(=O)[C@@]23C(=O)N[C@@H](Cc4ccccc4)C2[C@H](C)[C@@]2(C)O[C@H]2C3/C=C/C/C=C\CNC1=O (stereo partly drawn) | YES
* CCCCCCCCCCC(O)C1C=CC2C(=O)N(C)C(=O)C2N1N1CCCCC1 (stereo not drawn) | NO
* COCCCNC(=O)[C@@H]1c2ccccc2C(=O)N(Cc2cc(C(F)(F)F)cc(C(F)(F)F)c2)[C@H]1c1ccc(CO)cc1 | YES
* COCCOC(=O)N1C(=O)[C@@]2(c3cc(C#Cc4ccc(OC)cc4)ccc31)[C@H](C(=O)N1CCCCCCC1)[C@H]1C(=O)O[C@H](c3ccccc3)[C@H](c3ccccc3)N1[C@@H]2c1ccccc1OCCO | YES

Query: Could you please find out whether Cc1ccccc1C(O)C1C=CC2C(=O)N(c3ccccc3)C(=O)C2N1Nc1ccccc1F (stereo not drawn) has z-score that meets -0.6 or exceeds it?
Reply: NO

Query: Could you please find out whether `COc1ccc(CCNC(=O)[C@@]2(C)c3ccccc3C(=O)N(Cc3cc(C(F)(F)F)cc(C(F)(F)F)c3)[C@H]2c2ccc(CO)cc2)cc1` has z-score that meets -0.6 or exceeds it?
Reply: NO

Query: Could you please find out whether `C=C(/C(=C/C[C@H](OC(=O)c1ccncc1)c1ccccc1OCCO)c1cc(C(=O)OC)ccc1OC)C(C)C` has z-score that meets -0.6 or exceeds it?
Reply: NO

Query: Could you please find out whether `CC(C)[C@@H](C(=O)O)n1cc(-c2ccccc2)nn1` has z-score that meets -0.6 or exceeds it?
Reply: YES

Query: Could you please find out whether `COC(=O)[C@@H]1N=C(c2ccc(OCCCO)cc2)O[C@@H]1c1ccccc1CN=[N+]=[N-]` has z-score that meets -0.6 or exceeds it?
Reply: YES

Query: Could you please find out whether `CC(C)CNC(=O)[C@@H]1c2ccccc2C(=O)N(C2Cc3ccccc3C2)[C@H]1c1ccc(CO)cc1` has z-score that meets -0.6 or exceeds it?
Reply: NO

Query: Could you please find out whether CCN(CC)c1ccc(N2CC=CC34O[C@@H]5C=CCOC(=O)[C@@H]5[C@H]3C(=O)N(CCO)[C@@H]4C2=O)cc1 (stereo partly drawn) has z-score that meets -0.6 or exceeds it?
Reply: YES

Query: Could you please find out whether `CC(C)(C)OC(=O)CC[C@]1(C(N)=O)N=C(c2ccc(OCCCO)cc2)O[C@H]1c1ccccc1CN=[N+]=[N-]` has z-score that meets -0.6 or exceeds it?
Reply: YES

Each recorded value in this set is attributed to PubChem BioAssay.
